- Test system: SK-OV-3 ovarian
- MEASUREMENT DESCRIPTION: NCI-60 one-dose screen, 48 h
- CONDITION DETAILS: 10 µM unless noted
The panel holds about 83,000 compounds, 20% with a hit somewhere; the sample as a whole holds those more often. Active and inactive are the calls of the source. The calls were made as follows: active = growth percent below 10; inactive = the rest.
One label from this list, please: active, inactive

Query: // return assay outcome for CC[C@]12C=CCN3CC[C@@]4(c5cc(NC(=O)COc6cc(O)c7c(=O)cc(-c8ccccc8)oc7c6)c(OC)cc5N(C)[C@H]4[C@@](O)(C(=O)OC)[C@@H]1OC(C)=O)[C@@H]32
Result: active

Query: // return assay outcome for NS(=O)(=O)c1ccc(Nc2nc(SCC(=O)c3ccc(Cl)cc3)nc3c2CCCC3)cc1
Result: inactive

Query: // return assay outcome for COc1c(N2CC3CCCNC3C2)c(F)cc2c(=O)c(C(=O)N/N=C/c3ccc(F)cc3)cn(C3CC3)c12 (centres undefined)
Result: inactive

Query: // return assay outcome for NS(=O)(=O)c1ccc(Nc2nc(N/N=C/CCc3ccccc3)nc(Nc3ccccc3)n2)cc1
Result: inactive

Query: // return assay outcome for CCCCNNC(=O)c1ccc(-c2cccc(F)c2F)cc1
Result: inactive

More entries:
Query: // return assay outcome for COc1cc(OC)c(S(N)(=O)=O)cc1C(C)=O
Result: inactive

Query: // return assay outcome for O=C(O)c1cn(C2CC2)c2cc(N3CCN(C(=O)CN4C(=O)CSC4=O)CC3)c(F)cc2c1=O
Result: inactive

* * *

Assign growth to each entry below.
- Tested on: OVCAR-8 ovarian
- MEASUREMENT DESCRIPTION: NCI-60 one-dose screen, 48 h (100 = growth as untreated, 0 = no growth, -100 = all killed)
- CONDITION DETAILS: 10 µM unless noted
About 83,000 compounds went through this panel and 20% of them were active in at least one assay; those are over-represented in the sample as a whole.
Numbers only, in %.

Consider the following illustrative entries.
Query: // query growth value for entry CCNC(=O)Oc1ccc(/C(=C(/C)c2ccccc2)c2ccc(OCCN3CCCCCC3)cc2)cc1
Result: 7.06

Query: // query growth value for entry CC(=O)Nc1cccc(Nc2nc(N[C@@H](C)c3ccccc3)c3ccccc3n2)c1
Result: 39

More entries:
Query: // query growth value for entry O=C(CCn1c[n+](CC(=O)c2ccc(-c3ccccc3)cc2)c2ccccc21)Nc1cccc2cccnc12
Result: 52.5

* * *

- Tested on: SW-620 colon
- MEASUREMENT DESCRIPTION: NCI-60 one-dose screen, 48 h
- CONDITION DETAILS: 10 µM unless noted
- Experimental: Growth inhibition of the SW-620 human tumor cell line is measured as a screen for anti-cancer activity. Cells are grown in 96 well plates and exposed to the test compound for 48 hours. Compounds are tested at a single concentration, which is 10^-5 M for most compounds. The reported endpoint is percent growth (GI% or GIPRCNT), where numbers from 0 - 100% represent growth inhibition, and numbers from -100% - 0 represent cell death. For example, a value of 40 represents 60% growth inhibition. […]
The panel holds about 83,000 compounds, 20% with a hit somewhere; the sample as a whole holds those more often. The source made the active and inactive calls. Rule for the calls: active = growth percent below 10; inactive = the rest.
One label from this list, please: Yes = active, No = inactive

Below are worked cases with known answers.
Query: // return assay outcome for CC(C)(C)n1cc(-c2ccnc(NCCCNS(=O)(=O)c3cccc(F)c3)n2)c(-c2ccc(Cl)c(O)c2)n1
Result: No

Query: // return assay outcome for COc1ccc(N2C(=O)c3cc(Cl)ccc3NC2SCc2ccccc2)cc1 (centres undefined)
Result: No

Query: // return assay outcome for COc1ccc(OC)c(-c2nc(SCC(=O)c3ccc(Br)cc3)nc(Nc3ccc(S(N)(=O)=O)cc3)c2C#N)c1
Result: No

Query: // return assay outcome for N#Cc1cnc2ccc(-c3cnc4[nH]ncc4c3)cc2c1N1CCc2cc(F)c(Cl)cc21
Result: No

Moving on to another compound below.
Query: // return assay outcome for COc1ccc([C@H]2c3[nH]c4ccccc4c3C[C@H]3C(=O)N(C4CCN(Cc5c(Cl)cccc5Cl)CC4)CC(=O)N23)c(OC)c1
Result: No
